Molecular target: FL_Reg1 (full-length human Regnase-1) phosphorylation by TBK1 (Homo sapiens)
Construct: made in house; host or cells: Expi293 cells
Sequence (Q5D1E8 whole entry): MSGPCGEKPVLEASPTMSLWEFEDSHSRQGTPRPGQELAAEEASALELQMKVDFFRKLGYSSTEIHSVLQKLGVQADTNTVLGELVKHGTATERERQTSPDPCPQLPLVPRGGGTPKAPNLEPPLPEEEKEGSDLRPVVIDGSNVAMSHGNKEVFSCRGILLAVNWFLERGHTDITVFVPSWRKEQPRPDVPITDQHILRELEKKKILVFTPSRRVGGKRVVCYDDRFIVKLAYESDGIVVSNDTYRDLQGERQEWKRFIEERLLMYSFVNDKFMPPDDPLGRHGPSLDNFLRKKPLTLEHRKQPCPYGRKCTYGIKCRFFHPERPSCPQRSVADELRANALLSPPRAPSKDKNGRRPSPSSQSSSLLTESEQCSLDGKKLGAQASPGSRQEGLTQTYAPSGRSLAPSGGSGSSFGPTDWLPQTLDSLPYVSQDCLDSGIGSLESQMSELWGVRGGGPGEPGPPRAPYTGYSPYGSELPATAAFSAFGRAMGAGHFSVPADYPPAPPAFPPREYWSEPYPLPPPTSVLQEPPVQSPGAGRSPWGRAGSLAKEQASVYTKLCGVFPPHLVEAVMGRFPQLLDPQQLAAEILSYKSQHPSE
Assay: Regnase-1 phosphorylation inhibition by compounds (AlphaScreen), TBK1, full-length Regnase-1
Assay type: biochemical
Details: Table 11; 2 nM Regnase-1; AlphaScreen; read-out: 50% inhibition concentration, Regnase-1 phosphorylation, FL_Reg1, TBK1
Protocol: The full-length sequence of human Regnase-1 (UniProt ID: Q5D1E8) was used to prepare a construct having a FLAG tag on the N-terminal side and a recognition sequence for biotin ligase BirA on the C-terminal side (FL_Reg1) as a target protein. […] Phosphorylated Regnase-1 was detected by the AlphaScreen system. […] After mixing 2 nM of the above-mentioned Regnase-1 and the compound, phosphorylated Regnase-1 produced by the phosphorylation reaction was detected by the AlphaScreen system. […]
Residues, ends and D or L forms follow the SMILES beside them.
Parameter: IC50 (µM)
Field format: number, assumed µM, no unit text.

Query: Please give the measured IC50 for this compound: CC(C)[C@@H]1NC(=O)[C@H](CCCCN)NC(=O)[C@H](Cc2ccc(O)cc2)NC(=O)[C@H](Cc2c[nH]c3ccccc23)NC(=O)[C@H](CO)NC(=O)[C@H]([C@@H](C)O)NC(=O)[C@H](C)N(C)C(=O)C[C@@H](C(=O)N2CCCC2)NC(=O)[C@H](CCC(N)=O)NC(=O)CNC(=O)[C@H](Cc2c[nH]c3ccccc23)NC(=O)[C@H](CC(N)=O)NC1=O [PP1] (HELM PEPTIDE1{[meA].T.S.W.Y.K.V.N.W.G.Q.D.[C1CCN([*:1])C1]}$PEPTIDE1,PEPTIDE1,1:R1-12:R3$$$V2.0)
Response: 54.5

Query: Also CC[C@H](C)[C@@H]1NC(=O)[C@H](Cc2ccc(O)cc2)NC(=O)[C@H](C)N(C)C(=O)C[C@@H](C(=O)N2CCCC2)NC(=O)[C@H](CC(C)C)NC(=O)[C@H](CC(=O)O)NC(=O)CNC(=O)[C@H](Cc2ccccc2)NC(=O)[C@H](Cc2ccccc2)NC(=O)[C@H](CC(=O)O)NC(=O)[C@H](Cc2c[nH]c3ccccc23)NC1=O [PP4] (HELM PEPTIDE1{[meA].Y.I.W.D.F.F.G.D.L.D.[C1CCN([*:1])C1]}$PEPTIDE1,PEPTIDE1,1:R1-11:R3$$$V2.0) , if possible.
Response: 61.9
